# ASSAY TARGET: GABA A receptor alpha-5/beta-3/gamma-2 (Rattus norvegicus, UniProt P18508+P19969+P63079)
# Sequence (P18508 whole entry): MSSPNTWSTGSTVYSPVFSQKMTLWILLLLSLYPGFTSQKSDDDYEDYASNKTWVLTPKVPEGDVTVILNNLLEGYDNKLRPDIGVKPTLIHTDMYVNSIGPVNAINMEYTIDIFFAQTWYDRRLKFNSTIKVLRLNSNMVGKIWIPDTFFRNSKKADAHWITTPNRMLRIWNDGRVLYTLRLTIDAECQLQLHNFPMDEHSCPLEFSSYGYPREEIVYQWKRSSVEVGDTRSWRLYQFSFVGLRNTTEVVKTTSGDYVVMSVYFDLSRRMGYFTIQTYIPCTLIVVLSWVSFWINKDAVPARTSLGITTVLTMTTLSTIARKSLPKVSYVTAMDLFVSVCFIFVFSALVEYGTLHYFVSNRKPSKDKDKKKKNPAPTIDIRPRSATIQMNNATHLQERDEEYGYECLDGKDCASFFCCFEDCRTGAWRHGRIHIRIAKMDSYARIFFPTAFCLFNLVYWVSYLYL
# Sequence (P19969 whole entry): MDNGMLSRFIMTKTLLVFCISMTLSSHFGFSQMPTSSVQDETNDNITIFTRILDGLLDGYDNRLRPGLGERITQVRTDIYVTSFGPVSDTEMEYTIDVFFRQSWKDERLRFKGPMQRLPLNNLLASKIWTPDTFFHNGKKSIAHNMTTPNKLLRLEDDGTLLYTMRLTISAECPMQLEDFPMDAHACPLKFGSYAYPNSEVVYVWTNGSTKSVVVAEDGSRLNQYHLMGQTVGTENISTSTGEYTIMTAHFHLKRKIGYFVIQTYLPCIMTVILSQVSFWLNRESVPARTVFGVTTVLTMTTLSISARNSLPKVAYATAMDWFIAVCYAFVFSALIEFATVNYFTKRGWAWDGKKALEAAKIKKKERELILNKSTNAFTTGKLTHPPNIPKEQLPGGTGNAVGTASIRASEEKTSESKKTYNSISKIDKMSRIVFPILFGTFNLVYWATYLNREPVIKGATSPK
# Sequence (P63079 whole entry): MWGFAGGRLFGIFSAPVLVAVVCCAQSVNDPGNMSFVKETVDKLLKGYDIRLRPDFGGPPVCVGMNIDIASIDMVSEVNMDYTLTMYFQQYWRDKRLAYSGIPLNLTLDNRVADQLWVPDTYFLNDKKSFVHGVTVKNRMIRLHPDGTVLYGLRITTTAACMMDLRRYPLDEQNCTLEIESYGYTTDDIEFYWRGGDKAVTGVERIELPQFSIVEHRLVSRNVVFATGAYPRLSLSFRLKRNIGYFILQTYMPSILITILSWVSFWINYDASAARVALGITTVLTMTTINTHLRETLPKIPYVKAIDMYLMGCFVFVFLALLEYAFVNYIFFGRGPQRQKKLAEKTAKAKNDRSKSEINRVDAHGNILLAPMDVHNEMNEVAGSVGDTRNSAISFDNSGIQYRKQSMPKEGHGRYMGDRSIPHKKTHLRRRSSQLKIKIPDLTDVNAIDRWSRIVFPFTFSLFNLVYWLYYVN
# EXPERIMENT: Displacement of [3H]flumazenil from rat GABA-A Gamma-aminobutyric acid A receptor alpha-5-beta-3-gamma-2 expressed in HEK293 cells
Please respond with reported Ki for every item in the list.
Numbers only, in nM.

# example entries with known answers
| SAMPLE SMILES | Ki, nM |
| --- | --- |
| O=c1[nH]c2ccc(Cl)cc2n2c(=O)c(-c3ccccc3)nn12 | 10.3 |
| COc1ccc(-c2nn3c(=O)[nH]c4ccccc4n3c2=O)cc1 | 17.2 |
| COc1ccc(-c2nn3c(=O)[nH]c4ccc(Cl)cc4n3c2=O)cc1 | 7.57 |

Lookup: Data request, read-out Ki, for `O=c1[nH]c2ccccc2n2c(=O)c(-c3ccccc3)nn12`
Found: 24.1
